Target: pERK1/2 (Thr202/Tyr204), NCI-1H358 (KRAS G12C) (Homo sapiens, UniProt P01116, G12C)
Construct: pERK1/2 HTRF read-out
Sequence (P01116 1-188 isoform P01116-2 G12C): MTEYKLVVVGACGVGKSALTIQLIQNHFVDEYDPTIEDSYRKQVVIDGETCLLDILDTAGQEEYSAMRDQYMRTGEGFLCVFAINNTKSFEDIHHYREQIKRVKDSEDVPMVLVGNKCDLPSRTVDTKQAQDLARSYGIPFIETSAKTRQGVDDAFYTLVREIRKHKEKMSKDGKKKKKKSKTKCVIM
Assay: Assay of intracellular pERK1/2 (Thr202/Tyr204) phosphorylation in NCI-H358 cells (KRAS G12C)
Format: cell-based
Details: pERK1/2, 2 days, read-out: NCI-H358 (KRAS G12C) IC50
pIC50: −log10 of the molar value.
Entries and their measured pIC50 follow.
readout: pIC50

| molecule | value-prefix | number |
| --- | --- | --- |
| [2H]C([2H])(Oc1nc2c3c(nc(-c4cc(N)c(F)c(C)c4C(F)(F)F)c(F)c3n1)OCCN2C(C)c1cccnc1N)[C@@H]1C[C@@H](F)CN1C([2H])([2H])[2H] (stereo partly drawn) | = | 9.52 |
| Cc1c(C(F)(F)F)c(-c2nc3c4c(nc(OCC5(CN(C)C)CC5)nc4c2F)N(C(C)c2cccnc2N)[C@@H](C)CO3)c2cn[nH]c2c1F (stereo partly drawn) | > | 9.34 |
| Cc1cc2[nH]ncc2c(-c2nc3c4c(nc(OCC5(CN(C)C)CC5)nc4c2F)N(C(C)c2cccnc2N)CCO3)c1C (stereo not drawn) | = | 6.15 |

----------
Biological target: pERK1/2 (Thr202/Tyr204), PANC-1 (KRAS G121D) (Homo sapiens, UniProt P01116, G12D)
Construct: pERK1/2 HTRF read-out
Sequence (P01116 1-188 isoform P01116-2 G12D): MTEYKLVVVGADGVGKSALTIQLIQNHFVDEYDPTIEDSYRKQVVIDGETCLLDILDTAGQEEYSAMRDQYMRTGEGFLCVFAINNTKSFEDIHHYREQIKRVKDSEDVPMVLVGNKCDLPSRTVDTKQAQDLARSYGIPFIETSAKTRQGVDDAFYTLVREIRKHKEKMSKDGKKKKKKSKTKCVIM
Experiment: Assay of intracellular pERK1/2 (Thr202/Tyr204) phosphorylation in PANC-1 cells (KRAS G12D)
Format: cell-based
Details: pERK1/2, 2 days, read-out: PANC-1 (KRAS G12D) IC50
// returns n unless IC50 is strictly below 2 nM, in which case y

| molecule | assay-system | group |
| --- | --- | --- |
| CC(c1cccnc1N)N1CCOc2nc(-c3cc(N)c(F)c(Cl)c3C(F)(F)F)c(F)c3nc(OC[C@@]45CCCN4C/C(=C\F)C5)nc1c23 (some centres unmarked) | pERK1/2 (Thr202/Tyr204), PANC-1 (KRAS G121D) (Homo sapiens, UniProt P01116, G12D) | y |
| CC[C@@H](c1cccnc1N)N1CCOc2nc(-c3cc(N)c(F)c(C)c3C(F)(F)F)c(F)c3nc(OC[C@@]45CCCN4C[C@H](F)C5)nc1c23 (single isomer, unassigned) | pERK1/2 (Thr202/Tyr204), PANC-1 (KRAS G121D) (Homo sapiens, UniProt P01116, G12D) | n |
| CC(c1cccnc1N)N1CCOc2nc(-c3cc(O)cc(F)c3C3CC3)c(F)c3nc(OC[C@@H]4CCN4CC(F)F)nc1c23 (single isomer, unassigned) [Compound 23] | pERK1/2 (Thr202/Tyr204), PANC-1 (KRAS G121D) (Homo sapiens, UniProt P01116, G12D) | n |
| CC(c1cccnc1N)N1CCOc2nc(-c3cc(O)cc(F)c3C3CC3)c(F)c3nc(OC[C@@H]4CCCN4C)nc1c23 (single isomer, unassigned) [Compound 35] | pERK1/2 (Thr202/Tyr204), PANC-1 (KRAS G121D) (Homo sapiens, UniProt P01116, G12D) | n |
| Cc1c(F)c(N)cc(-c2nc3c4c(nc(OC[C@@]56CCCN5C[C@H](F)C6)nc4c2F)N([C@@H](C)c2cc(F)cnc2N)[C@@H](C)CO3)c1C(F)(F)F | pERK1/2 (Thr202/Tyr204), PANC-1 (KRAS G121D) (Homo sapiens, UniProt P01116, G12D) | n |
| CC(c1cccnc1N)N1c2nc(OC[C@@]34CCCN3C[C@H](F)C4)nc3c(F)c(N4CC(O)Cc5ccccc54)nc(c23)OC[C@@H]1C (some centres unmarked) | pERK1/2 (Thr202/Tyr204), PANC-1 (KRAS G121D) (Homo sapiens, UniProt P01116, G12D) | n |
| Cc1cc(N)cc(-c2nc3c4c(nc(OC[C@@H]5C[C@@H](F)CN5C)nc4c2F)N(C(C)c2cccnc2N)CCO3)c1C(F)(F)F (single isomer, unassigned) [Compound 81] | pERK1/2 (Thr202/Tyr204), PANC-1 (KRAS G121D) (Homo sapiens, UniProt P01116, G12D) | n |
| Cc1c(F)c(N)cc(-c2nc3c4c(nc(OC[C@@]56CCCN5C[C@H](F)C6)nc4c2F)N(C(C)c2cccnc2N)C[C@@H](C)O3)c1C(F)(F)F (single isomer, unassigned) [Compound 248] | pERK1/2 (Thr202/Tyr204), PANC-1 (KRAS G121D) (Homo sapiens, UniProt P01116, G12D) | n |
| Cc1cc2[nH]nc(C)c2c(-c2cc3nc(OC[C@@]45CCCN4C[C@H](F)C5)nc4c3c(n2)OC[C@H](C)N4C(C)c2cccnc2N)c1C(F)(F)F (some centres unmarked) | pERK1/2 (Thr202/Tyr204), PANC-1 (KRAS G121D) (Homo sapiens, UniProt P01116, G12D) | y |

Sourced from patent US20260356851A1
